molecular target: T1, human EphA5 (Homo sapiens, UniProt P54756); test: Selectivity ELISA of humanized antibodies for human Eph receptor; assay type: binding; conditions: coated protein 1 nM
T1 construct: a protein of the extracellular region of each human Eph receptor fused with the SEAP protein and the His tag; made in house; host or cells: Expi293F cells (culture supernatant)
T1 sequence (P54756 25-573 limits assumed): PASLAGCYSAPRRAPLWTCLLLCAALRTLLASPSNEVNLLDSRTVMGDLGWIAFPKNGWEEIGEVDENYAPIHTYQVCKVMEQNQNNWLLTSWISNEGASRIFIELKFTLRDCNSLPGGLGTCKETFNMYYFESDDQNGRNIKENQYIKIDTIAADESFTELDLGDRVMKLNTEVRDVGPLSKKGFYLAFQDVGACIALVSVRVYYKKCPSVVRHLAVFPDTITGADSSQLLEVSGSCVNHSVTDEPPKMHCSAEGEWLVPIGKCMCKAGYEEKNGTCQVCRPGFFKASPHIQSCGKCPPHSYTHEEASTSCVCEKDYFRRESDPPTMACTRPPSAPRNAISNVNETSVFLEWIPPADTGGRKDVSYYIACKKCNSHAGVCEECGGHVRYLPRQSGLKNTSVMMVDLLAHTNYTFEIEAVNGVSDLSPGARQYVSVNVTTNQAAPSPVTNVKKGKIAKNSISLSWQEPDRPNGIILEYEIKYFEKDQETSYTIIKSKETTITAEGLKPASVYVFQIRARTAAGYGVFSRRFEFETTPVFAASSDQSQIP
Could you please report measured hEphA5-SEAP-: absorbance at 450 nm, percentage with respect to hEphA4-SEAP-His as 100% for the items listed next?
One number for each entry, in %.

Answered cases to consult:
88 (antibody, V domains shown, constant regions without entry; synthetic humanized antibody light chain variable region sequence; synthetic humanized antibody heavy chain variable region sequence) VL: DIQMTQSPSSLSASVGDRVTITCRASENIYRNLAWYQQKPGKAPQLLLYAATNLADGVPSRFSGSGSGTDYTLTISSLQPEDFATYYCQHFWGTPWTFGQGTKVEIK VH: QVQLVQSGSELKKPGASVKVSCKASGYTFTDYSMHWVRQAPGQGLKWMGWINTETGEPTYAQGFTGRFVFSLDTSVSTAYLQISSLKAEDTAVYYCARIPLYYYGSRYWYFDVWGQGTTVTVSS ... 5.9
155 (antibody, V domains shown, synthetic humanized antibody heavy chain variable region sequence; synthetic humanized antibody light chain variable region sequence) VH: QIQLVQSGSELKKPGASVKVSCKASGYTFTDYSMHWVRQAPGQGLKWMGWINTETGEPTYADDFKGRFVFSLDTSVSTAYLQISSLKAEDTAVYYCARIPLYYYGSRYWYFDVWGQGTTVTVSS VL: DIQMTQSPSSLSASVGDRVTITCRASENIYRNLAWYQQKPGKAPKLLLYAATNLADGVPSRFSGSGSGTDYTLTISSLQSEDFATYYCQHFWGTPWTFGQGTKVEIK ... 5.6

Batch lookup, hEphA5-SEAP-: absorbance at 450 nm, percentage with respect to hEphA4-SEAP-His as 100% per entry.
1. 135 (antibody, V domains shown, synthetic humanized antibody heavy chain variable region sequence; synthetic humanized antibody light chain variable region sequence) VH: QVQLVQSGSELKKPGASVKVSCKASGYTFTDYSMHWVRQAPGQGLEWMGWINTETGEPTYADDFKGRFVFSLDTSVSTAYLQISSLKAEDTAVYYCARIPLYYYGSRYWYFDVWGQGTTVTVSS VL: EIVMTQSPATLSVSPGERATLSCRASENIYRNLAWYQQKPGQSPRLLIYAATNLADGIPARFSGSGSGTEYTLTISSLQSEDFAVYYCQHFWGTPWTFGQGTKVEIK
2. 91 (antibody, V domains shown, constant regions without entry; synthetic humanized antibody light chain variable region sequence; synthetic humanized antibody heavy chain variable region sequence) VL: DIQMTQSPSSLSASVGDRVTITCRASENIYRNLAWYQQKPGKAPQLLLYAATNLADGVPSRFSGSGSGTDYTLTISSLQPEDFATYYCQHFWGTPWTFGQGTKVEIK VH: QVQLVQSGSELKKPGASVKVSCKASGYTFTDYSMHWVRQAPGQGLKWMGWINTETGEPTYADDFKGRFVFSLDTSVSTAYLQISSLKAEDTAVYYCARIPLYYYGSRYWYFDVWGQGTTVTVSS

## Output
1. 5.0
2. 6.4
